Could you please report measured Ki for the items listed next?
study_system: Human α2δ-1 subunit of Cav2.2 calcium channel (Homo sapiens (Human), UniProt P54289)
Sequence (P54289 25-1103): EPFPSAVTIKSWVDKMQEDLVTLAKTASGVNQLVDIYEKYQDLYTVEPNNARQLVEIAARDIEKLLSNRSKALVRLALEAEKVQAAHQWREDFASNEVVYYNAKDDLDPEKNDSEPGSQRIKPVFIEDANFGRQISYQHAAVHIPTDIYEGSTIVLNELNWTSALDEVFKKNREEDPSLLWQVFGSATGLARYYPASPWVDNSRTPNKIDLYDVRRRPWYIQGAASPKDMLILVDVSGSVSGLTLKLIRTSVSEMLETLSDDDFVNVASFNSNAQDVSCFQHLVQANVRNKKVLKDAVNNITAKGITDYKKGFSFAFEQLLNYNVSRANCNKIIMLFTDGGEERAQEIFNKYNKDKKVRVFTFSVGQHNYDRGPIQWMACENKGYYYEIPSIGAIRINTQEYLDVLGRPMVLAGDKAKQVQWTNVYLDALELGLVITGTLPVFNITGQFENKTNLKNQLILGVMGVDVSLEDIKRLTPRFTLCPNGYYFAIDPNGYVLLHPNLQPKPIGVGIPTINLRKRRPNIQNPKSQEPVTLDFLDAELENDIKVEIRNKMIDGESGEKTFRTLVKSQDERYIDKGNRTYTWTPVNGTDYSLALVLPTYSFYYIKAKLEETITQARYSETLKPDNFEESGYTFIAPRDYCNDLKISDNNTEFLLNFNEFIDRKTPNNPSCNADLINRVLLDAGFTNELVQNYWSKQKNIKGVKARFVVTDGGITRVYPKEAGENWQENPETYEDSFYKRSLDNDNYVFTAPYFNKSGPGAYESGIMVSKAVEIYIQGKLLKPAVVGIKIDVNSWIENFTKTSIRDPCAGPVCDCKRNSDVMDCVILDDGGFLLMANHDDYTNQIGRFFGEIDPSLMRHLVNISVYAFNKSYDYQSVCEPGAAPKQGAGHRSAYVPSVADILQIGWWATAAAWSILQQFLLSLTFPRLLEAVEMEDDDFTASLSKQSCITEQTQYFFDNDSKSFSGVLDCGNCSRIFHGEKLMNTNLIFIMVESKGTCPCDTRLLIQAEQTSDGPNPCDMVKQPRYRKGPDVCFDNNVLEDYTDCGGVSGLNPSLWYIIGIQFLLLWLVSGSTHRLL
assay_name: Binding Assay to Human α2δ-1 Subunit of Cav2.2 Calcium Channel
condition_info: Table 1; human α2δ-1 enriched membranes, 15 nM [3H]-Gabapentin; read-out: Ki(nM) alpha2delta Hum

Ask: Return reported Ki; argument: CNCCC(Oc1cccc(N2CCNCCC2=O)c1)c1cccs1 (stereo not shown)
Reply: 500 to 3000 nM

Ask: Return reported Ki; argument: CNCCC(Oc1ccc(CN2CCN(C)c3ncccc3C2=O)c(F)c1)c1cccc(F)c1 (stereo not shown)
Reply: < 100 nM

Ask: Return reported Ki; argument: CCNc1ccc2c(n1)N(C)CCN(Cc1ccc(OC(CCNC)c3ccccc3)cc1)C2=O (stereo not shown)
Reply: 500 to 3000 nM

Ask: Return reported Ki; argument: CNCC[C@H](Oc1ccc(CN2CCN(C)c3ncccc3C2=O)c(C)c1)c1ccccc1
Reply: 100 to 500 nM

---

study_system: Human α2δ-1 subunit of Cav2.2 calcium channel (Homo sapiens (Human), UniProt P54289)
assay_name: Binding Assay to Human α2δ-1 Subunit of Cav2.2 Calcium Channel
condition_info: Table 1; human α2δ-1 enriched membranes, 15 nM [3H]-Gabapentin; read-out: Ki(nM) alpha2delta Hum
measurement_kind: Ki

Ask: Return reported Ki; argument: CNCC[C@H](Oc1ccc(CN2CCN(C)c3ncccc3C2=O)c(Cl)c1)c1cccc(F)c1
Reply: < 100 nM

Ask: Return reported Ki; argument: CNCCC(Oc1cccc(N2CCCCCC2=O)c1)c1ccccc1 (centres unmarked)
Reply: > 3000 nM

Ask: Return reported Ki; argument: CNCC[C@H](Oc1ccc(CN2CCN(C)c3ncccc3C2=O)c(F)c1)c1cccc(F)c1
Reply: < 100 nM

Ask: Return reported Ki; argument: CNCC[C@@H](OCc1cccc(N2CCN(C)c3ccccc3C2=O)c1)c1cccc(F)c1
Reply: > 3000 nM

Ask: Return reported Ki; argument: CNCC[C@H](Oc1cccc(N2CCN(C)c3nc(C)ccc3C2=O)c1)c1ccsc1
Reply: 100 to 500 nM

Ask: Return reported Ki; argument: CNCC[C@H](Oc1ccc(CN2CCCn3nc(C)cc3C2=O)c(F)c1)c1ccccc1
Reply: 100 to 500 nM

Ask: Return reported Ki; argument: CNCC[C@H](Oc1ccc(CN2CCCn3nc(OC)cc3C2=O)c(F)c1)c1ccccc1
Reply: 100 to 500 nM

Ask: Return reported Ki; argument: CNCCC(Oc1ccc(CN2CCN(C)c3nc(C)ccc3C2=O)cc1)c1ccccc1 (centres unmarked)
Reply: 500 to 3000 nM

Ask: Return reported Ki; argument: CNCCC(Oc1ccc(CN2CCCN(C)CC2)cc1)c1cccs1 (centres unmarked)
Reply: > 3000 nM

Ask: Return reported Ki; argument: CNCCC(Oc1cccc(C(=O)N2CCCN(C)CC2)c1)c1ccccc1 (centres unmarked)
Reply: 500 to 3000 nM

Ask: Return reported Ki; argument: CNCCC(OCc1cccc(N2CCN(C)c3ccccc3C2=O)c1)c1cccc(F)c1 (centres unmarked)
Reply: 500 to 3000 nM

Ask: Return reported Ki; argument: CNCC[C@H](Oc1ccc(CN2CCN(C)c3ncccc3C2=O)c(Cl)c1)c1ccccc1
Reply: < 100 nM

Ask: Return reported Ki; argument: CNCC[C@H](Oc1ccc(CN2CCN(C)c3nc(C(F)(F)F)ccc3C2=O)cc1)c1cccs1
Reply: 100 to 500 nM

Ask: Return reported Ki; argument: CNCCC(OCc1cccc(N2CCCCCC2=O)c1)c1ccccc1 (centres unmarked)
Reply: 500 to 3000 nM

Ask: Return reported Ki; argument: CCNC1CCCN(c2cccc(O[C@@H](CCNC)c3cccs3)c2)C(=O)C1 (single isomer, unassigned) [Example 118b]
Reply: 500 to 3000 nM

Ask: Return reported Ki; argument: CCNC[C@H]1CC(=O)N(c2cccc(O[C@@H](CCNC)c3cccs3)c2)CCN1C
Reply: 500 to 3000 nM

Ask: Return reported Ki; argument: CNCCC(OCc1cccc(N2CCN(C)c3ccccc3C2=O)c1)c1ccccc1F (centres unmarked)
Reply: 100 to 500 nM

---

Could you please report measured Ki for the items listed next?
study_system: Human α2δ-1 subunit of Cav2.2 calcium channel (Homo sapiens (Human))
assay_name: Binding Assay to Human α2δ-1 Subunit of Cav2.2 Calcium Channel
condition_info: Table 1; human α2δ-1 enriched membranes, 15 nM [3H]-Gabapentin; read-out: Ki(nM) alpha2delta Hum

Ask: Please state recorded Ki (tested on Human α2δ-1 subunit of Cav2.2 calcium channel (Homo sapiens (Human))) of CNCC[C@H](Oc1ccc(CN2CCN(C)c3nc(OC)ccc3C2=O)c(F)c1)c1ccccc1 [Example 132]
Reply: 100 to 500 nM

Ask: Please state recorded Ki (tested on Human α2δ-1 subunit of Cav2.2 calcium channel (Homo sapiens (Human))) of CNCC[C@H](Oc1ccc(CN2CCCn3nc(C)cc3C2=O)c(C)c1)c1cccs1 [Example 124]
Reply: < 100 nM

Ask: Please state recorded Ki (tested on Human α2δ-1 subunit of Cav2.2 calcium channel (Homo sapiens (Human))) of CNCC[C@H](Oc1cccc(N2CCN(C)c3nc(C(F)(F)F)ccc3C2=O)c1)c1cccs1 [Example 81]
Reply: 100 to 500 nM

Ask: Please state recorded Ki (tested on Human α2δ-1 subunit of Cav2.2 calcium channel (Homo sapiens (Human))) of CNCCC(Oc1cccc(N2CCCN(C)CC2)c1)c1cccs1 (centres unmarked) [Example 8]
Reply: 100 to 500 nM

Ask: Please state recorded Ki (tested on Human α2δ-1 subunit of Cav2.2 calcium channel (Homo sapiens (Human))) of CNCCC(Oc1ccc(CN2CCN(C)c3ncccc3C2=O)cc1)c1cccc(F)c1 (centres unmarked) [Example 117]
Reply: 100 to 500 nM

Ask: Please state recorded Ki (tested on Human α2δ-1 subunit of Cav2.2 calcium channel (Homo sapiens (Human))) of CNCC[C@@H](Oc1cccc(N2CCN(C)c3nc(C)ccc3C2=O)c1)c1ccsc1 [Example 79]
Reply: 100 to 500 nM

Ask: Please state recorded Ki (tested on Human α2δ-1 subunit of Cav2.2 calcium channel (Homo sapiens (Human))) of CNCC[C@H](Oc1ccc(CN2CCN(C)c3nc(O)ccc3C2=O)c(F)c1)c1ccccc1 [Example 142]
Reply: > 3000 nM

Ask: Please state recorded Ki (tested on Human α2δ-1 subunit of Cav2.2 calcium channel (Homo sapiens (Human))) of CNCC[C@@H](Oc1cccc(N2CCN(C(C)C)CCC2=O)c1)c1ccsc1 [Example 76]
Reply: 500 to 3000 nM

---

study_system: Human α2δ-1 subunit of Cav2.2 calcium channel (Homo sapiens (Human))
assay_name: Binding Assay to Human α2δ-1 Subunit of Cav2.2 Calcium Channel
condition_info: Table 1; human α2δ-1 enriched membranes, 15 nM [3H]-Gabapentin; read-out: Ki(nM) alpha2delta Hum
measurement_kind: Ki

Ask: Please state recorded Ki (tested on Human α2δ-1 subunit of Cav2.2 calcium channel (Homo sapiens (Human))) of CNCCC(Oc1cccc(N2CCN(C(C)C)CCC2=O)c1)c1cccs1 (stereo not drawn)
Reply: 500 to 3000 nM

Ask: Please state recorded Ki (tested on Human α2δ-1 subunit of Cav2.2 calcium channel (Homo sapiens (Human))) of CCN[C@@H]1CCCCN(c2cccc(O[C@@H](CCNC)c3cccs3)c2)C1=O
Reply: 500 to 3000 nM

Ask: Please state recorded Ki (tested on Human α2δ-1 subunit of Cav2.2 calcium channel (Homo sapiens (Human))) of CNCC[C@H](Oc1ccc(CN2CCCn3nccc3C2=O)cc1)c1cccs1
Reply: 100 to 500 nM

Ask: Please state recorded Ki (tested on Human α2δ-1 subunit of Cav2.2 calcium channel (Homo sapiens (Human))) of CNCCC(Oc1ccc(CN2CCN(C)CCC2=O)c(F)c1)c1cccs1 (stereo not drawn)
Reply: 100 to 500 nM

Ask: Please state recorded Ki (tested on Human α2δ-1 subunit of Cav2.2 calcium channel (Homo sapiens (Human))) of CNCC[C@H](Oc1ccc(CN2CCN(C)c3ncc(F)cc3C2=O)c(C)c1)c1cccs1
Reply: < 100 nM

Ask: Please state recorded Ki (tested on Human α2δ-1 subunit of Cav2.2 calcium channel (Homo sapiens (Human))) of CNCC[C@H](OCc1cccc(N2CCN(C)c3ccccc3C2=O)c1)c1cccc(F)c1
Reply: 500 to 3000 nM

Ask: Please state recorded Ki (tested on Human α2δ-1 subunit of Cav2.2 calcium channel (Homo sapiens (Human))) of CCNc1ccc2c(n1)N(C)CCN(Cc1ccc(O[C@H](CCNC)c3cccc(F)c3)cc1F)C2=O
Reply: > 3000 nM

Ask: Please state recorded Ki (tested on Human α2δ-1 subunit of Cav2.2 calcium channel (Homo sapiens (Human))) of CNCCC(OCc1cccc(N2CCN(C)c3cccnc3C2=O)c1)c1ccccc1 (stereo not drawn)
Reply: 500 to 3000 nM

Ask: Please state recorded Ki (tested on Human α2δ-1 subunit of Cav2.2 calcium channel (Homo sapiens (Human))) of CNCC[C@H](Oc1ccc(CN2CCN(C)c3ccccc3C2=O)cc1)c1cccs1
Reply: 500 to 3000 nM

Ask: Please state recorded Ki (tested on Human α2δ-1 subunit of Cav2.2 calcium channel (Homo sapiens (Human))) of CNCCC(Oc1cccc(CN2CCN(C)c3ccccc3C2=O)c1)c1cccs1 (stereo not drawn)
Reply: 500 to 3000 nM

Ask: Please state recorded Ki (tested on Human α2δ-1 subunit of Cav2.2 calcium channel (Homo sapiens (Human))) of CNCC[C@@H](OCc1cccc(N2CCCN(C)CC2)c1)c1ccccc1
Reply: 500 to 3000 nM

Ask: Please state recorded Ki (tested on Human α2δ-1 subunit of Cav2.2 calcium channel (Homo sapiens (Human))) of CNCCC(OCc1cccc(N2CCN(C)c3ncccc3C2=O)c1)c1ccccc1 (stereo not drawn)
Reply: 500 to 3000 nM

Ask: Please state recorded Ki (tested on Human α2δ-1 subunit of Cav2.2 calcium channel (Homo sapiens (Human))) of CNCC[C@H](Oc1ccc(CN2CCN(C)c3nc(N)ccc3C2=O)c(Cl)c1)c1ccccc1
Reply: < 100 nM

Ask: Please state recorded Ki (tested on Human α2δ-1 subunit of Cav2.2 calcium channel (Homo sapiens (Human))) of CNCCC(OCc1cccc(N2CCCN(C)CC2)c1)c1cccs1 (stereo not drawn)
Reply: 500 to 3000 nM

Ask: Please state recorded Ki (tested on Human α2δ-1 subunit of Cav2.2 calcium channel (Homo sapiens (Human))) of CNCC[C@H](Oc1ccc(CN2CCN(C)c3ncccc3C2=O)c(F)c1)c1ccccc1F
Reply: < 100 nM

Ask: Please state recorded Ki (tested on Human α2δ-1 subunit of Cav2.2 calcium channel (Homo sapiens (Human))) of CNCC[C@H](OCc1cccc(N2CCN(C)c3ccccc3C2=O)c1)c1cccs1
Reply: > 3000 nM

Ask: Please state recorded Ki (tested on Human α2δ-1 subunit of Cav2.2 calcium channel (Homo sapiens (Human))) of CNCCC(OCc1cccc(N2CCN(C)CCC2=O)c1)c1ccccc1 (stereo not drawn)
Reply: 500 to 3000 nM

Ask: Please state recorded Ki (tested on Human α2δ-1 subunit of Cav2.2 calcium channel (Homo sapiens (Human))) of CCNC[C@@H]1CN(C)CCN(c2cccc(O[C@@H](CCNC)c3ccccc3)c2)C1=O
Reply: > 3000 nM

The reported measurements were obtained from patent US11401270B2.
